Target Entity: α2β2 nAChR subtype (Rattus norvegicus, UniProt P12389+P12390)
Construct: expressed in transfected cells
Sequence (P12390 25-500, one chain of several): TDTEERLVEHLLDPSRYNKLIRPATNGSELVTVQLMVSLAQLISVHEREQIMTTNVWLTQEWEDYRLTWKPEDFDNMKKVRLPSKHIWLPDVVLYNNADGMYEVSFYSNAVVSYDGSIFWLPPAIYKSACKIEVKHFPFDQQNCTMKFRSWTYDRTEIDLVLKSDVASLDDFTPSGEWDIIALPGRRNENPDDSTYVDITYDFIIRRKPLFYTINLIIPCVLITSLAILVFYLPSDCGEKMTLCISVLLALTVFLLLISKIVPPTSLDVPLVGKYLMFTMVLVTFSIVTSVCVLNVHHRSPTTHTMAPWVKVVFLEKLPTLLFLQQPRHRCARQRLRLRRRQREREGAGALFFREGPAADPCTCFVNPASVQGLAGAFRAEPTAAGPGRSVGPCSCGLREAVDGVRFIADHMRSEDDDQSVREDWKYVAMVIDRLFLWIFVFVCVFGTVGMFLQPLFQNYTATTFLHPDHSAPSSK
Test Method Notes: biochemical
Format: binding
Study Conditions: read-out: Ki α2β2
Recorded Metric: Ki

Query :: Supply measured Ki of O=C1CC2CC(c3ccc(Cl)nc3)C1N2 (racemic) [Ligand 5] in your reply.
Result :: 1010 nM

Query :: Supply measured Ki of OC1CC2CC(c3ccc(Cl)nc3)C1N2 (racemic) [Ligand 9] in your reply.
Result :: 1.53 nM

Query :: Supply measured Ki of C#Cc1cncc([C@@H]2CCCN2C)c1 [SIB-1508Y, reference compound] in your reply.
Result :: 642 nM

* * *

Quick reference for pKi among some molecules
Target Entity: α4β4 nAChR subtype (Rattus norvegicus, UniProt P09483+P12392)
Construct: expressed in transfected cells
Sequence (P09483 31-630, one chain of several): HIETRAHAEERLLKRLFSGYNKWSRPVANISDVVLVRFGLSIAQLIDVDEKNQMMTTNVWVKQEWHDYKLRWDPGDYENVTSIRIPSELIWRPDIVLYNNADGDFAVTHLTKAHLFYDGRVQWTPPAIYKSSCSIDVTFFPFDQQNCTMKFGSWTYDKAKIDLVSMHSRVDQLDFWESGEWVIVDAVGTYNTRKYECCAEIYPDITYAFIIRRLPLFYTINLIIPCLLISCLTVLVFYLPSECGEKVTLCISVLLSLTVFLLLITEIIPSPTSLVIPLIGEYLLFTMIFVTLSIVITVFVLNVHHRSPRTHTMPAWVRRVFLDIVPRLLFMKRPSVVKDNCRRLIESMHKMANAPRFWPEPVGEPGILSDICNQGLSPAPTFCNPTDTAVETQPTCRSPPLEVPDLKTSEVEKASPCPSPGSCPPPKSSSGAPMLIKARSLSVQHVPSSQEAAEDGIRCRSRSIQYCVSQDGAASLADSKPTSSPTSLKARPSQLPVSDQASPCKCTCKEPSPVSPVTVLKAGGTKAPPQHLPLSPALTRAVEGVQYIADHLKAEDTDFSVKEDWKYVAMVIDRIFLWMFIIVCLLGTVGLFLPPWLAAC
Test Method Notes: biochemical
Type: binding
Study Conditions: Ki α4β4, Table 5; rat nAChR subtypes
Formally, pKi is defined as -log10 of the concentration c, with c in mol/L.

molecule="OCCCCC#Cc1cncc(OC[C@@H]2CCN2)c1 [Ligand 26]" target_entity="α4β4 nAChR subtype (Rattus norvegicus, UniProt P09483+P12392)" assay_value=7.13
molecule="O[C@H]1C[C@H]2C[C@H](c3ccc(Cl)nc3)[C@@H]1N2 (relative stereo) [Ligand 9]" target_entity="α4β4 nAChR subtype (Rattus norvegicus, UniProt P09483+P12392)" assay_value=8.25
molecule="OCCCCC#Cc1cncc(C2CC3CCC2N3)c1 (centres unmarked) [Ligand 31]" target_entity="α4β4 nAChR subtype (Rattus norvegicus, UniProt P09483+P12392)" assay_value=7.81
molecule="O[C@H]1C[C@H]2N[C@@H]1C[C@@H]2c1ccc(Cl)nc1 (relative stereo) [Ligand 6]" target_entity="α4β4 nAChR subtype (Rattus norvegicus, UniProt P09483+P12392)" assay_value=7.14

Next, consider the following molecule.
Query :: Supply measured pKi of Clc1ccc2c(n1)CCC1C3CCC(N3)C21 (centres unmarked) [Ligand 37b] in your reply.
Result :: 7.40

* * *

Target Entity: α2β4 nAChR subtype (Rattus norvegicus, UniProt P12389+P12392)
Construct: expressed in transfected cells
Sequence (P12389 28-511): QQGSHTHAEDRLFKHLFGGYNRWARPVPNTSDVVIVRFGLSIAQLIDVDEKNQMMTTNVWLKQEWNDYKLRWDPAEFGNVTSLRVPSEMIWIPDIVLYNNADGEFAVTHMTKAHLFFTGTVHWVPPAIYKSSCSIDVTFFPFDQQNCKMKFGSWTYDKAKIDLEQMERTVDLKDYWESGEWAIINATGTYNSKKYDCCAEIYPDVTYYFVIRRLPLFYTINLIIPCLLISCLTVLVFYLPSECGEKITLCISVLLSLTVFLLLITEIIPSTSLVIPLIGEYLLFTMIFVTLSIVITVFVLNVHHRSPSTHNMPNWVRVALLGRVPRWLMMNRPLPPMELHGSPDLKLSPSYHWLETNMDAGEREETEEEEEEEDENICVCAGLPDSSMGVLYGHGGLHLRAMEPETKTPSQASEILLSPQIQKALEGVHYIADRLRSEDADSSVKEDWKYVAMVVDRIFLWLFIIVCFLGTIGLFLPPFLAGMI
Sequence (P12392 21-495): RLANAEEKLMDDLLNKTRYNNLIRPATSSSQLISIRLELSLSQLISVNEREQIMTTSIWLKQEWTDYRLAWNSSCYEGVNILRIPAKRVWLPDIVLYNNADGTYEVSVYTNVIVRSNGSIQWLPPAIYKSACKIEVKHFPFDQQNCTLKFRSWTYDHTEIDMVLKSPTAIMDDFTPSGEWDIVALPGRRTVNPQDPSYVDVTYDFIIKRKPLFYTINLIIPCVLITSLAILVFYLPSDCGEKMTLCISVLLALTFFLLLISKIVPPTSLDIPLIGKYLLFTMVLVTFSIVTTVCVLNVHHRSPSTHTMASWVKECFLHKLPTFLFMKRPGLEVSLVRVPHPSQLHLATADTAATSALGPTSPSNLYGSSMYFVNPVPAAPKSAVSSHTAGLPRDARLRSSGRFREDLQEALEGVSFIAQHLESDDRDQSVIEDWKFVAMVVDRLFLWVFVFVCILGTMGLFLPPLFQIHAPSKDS
Test Method Notes: biochemical
Assay type: binding
Study Conditions: read-out: Ki α2β4; Table 5; rat nAChR subtypes
Recorded Metric: Ki (µM)
Respond with the bare value in µM.

Query :: State Ki on α2β4 nAChR subtype (Rattus norvegicus, UniProt P12389+P12392). Entry: "CN1CCC[C@H]1COc1cncc(C#CCNC(=O)OC(C)(C)C)c1"
Result :: 8.24

* * *

Target Entity: α3β4 nAChR subtype (Rattus norvegicus, UniProt P04757+P12392)
Construct: expressed in transfected cells
Sequence (P04757 26-499): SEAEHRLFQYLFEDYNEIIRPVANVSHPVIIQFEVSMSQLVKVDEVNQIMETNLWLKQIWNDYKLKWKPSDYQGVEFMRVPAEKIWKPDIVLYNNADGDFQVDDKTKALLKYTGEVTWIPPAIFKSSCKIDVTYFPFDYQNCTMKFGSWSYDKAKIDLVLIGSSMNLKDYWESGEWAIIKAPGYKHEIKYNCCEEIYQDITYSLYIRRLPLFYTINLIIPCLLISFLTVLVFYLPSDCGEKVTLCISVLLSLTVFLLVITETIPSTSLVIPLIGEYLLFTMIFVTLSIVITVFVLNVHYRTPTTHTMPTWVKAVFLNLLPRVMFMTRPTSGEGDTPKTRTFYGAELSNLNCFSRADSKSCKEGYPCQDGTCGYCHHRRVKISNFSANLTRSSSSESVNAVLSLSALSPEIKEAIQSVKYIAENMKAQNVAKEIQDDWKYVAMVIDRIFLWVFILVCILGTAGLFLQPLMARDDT
Sequence (P12392 21-495): as the sequence (P12392 21-495) above
Test Method Notes: biochemical
Type: binding
Study Conditions: Table 3; mean ± SEM of 3 (nicotine, 1: 3 to 6) independent measurements; read-out: Ki α3β4
Recorded Metric: Ki (µM)
Respond with the bare value in µM.

Reference set (3 entries):
molecule="Clc1ccc2c(n1)CCC21CC2CCC1N2 (stereo not shown) [Ligand 58b]" units=µM assay_value=13.8
molecule="Clc1ccc2c(n1)CCC1C3CCC(N3)C21 (stereo not shown) [Ligand 37b]" units=µM assay_value=0.201
molecule="Clc1cc2c(cn1)C1C3CCC(N3)C1CC2 (stereo not shown) [Ligand 37a]" units=µM assay_value=2.28

Next, consider the following molecule.
Query :: Supply measured Ki of Clc1cc2c(cn1)C1(CC2)CC2CCC1N2 (stereo not shown) [Ligand 58a] in your reply.
Result :: 14.9

* * *

Quick reference for pKi among some compounds
Target Entity: α4β4 nAChR subtype (Rattus norvegicus, UniProt P09483+P12392)
Construct: expressed in transfected cells
Test Method Notes: biochemical
Assay type: binding
Study Conditions: Ki α4β4, Table 1; mean of 3 (1, 2: 3 to 6) independent measurements
Formally, pKi is defined as -log10 of the concentration c, with c in mol/L.

smi=CN1CCC[C@H]1COc1cncc(C#CCO)c1 target_entity="α4β4 nAChR subtype (Rattus norvegicus, UniProt P09483+P12392)" assay_value=5.77
smi=CN1CCC[C@H]1COc1cncc(C#CCCCCCCCCO)c1 target_entity="α4β4 nAChR subtype (Rattus norvegicus, UniProt P09483+P12392)" assay_value=5.45

Next, consider the following compound.
Query :: Supply measured pKi of "C#Cc1cncc(OC[C@@H]2CCCN2C)c1" in your reply.
Result :: 6.33

* * *

Quick reference for pKi among some compounds
Target Entity: α3β4 nAChR subtype (Rattus norvegicus, UniProt P04757+P12392)
Construct: expressed in transfected cells
Test Method Notes: biochemical
Assay type: binding
Study Conditions: Ki α3β4, Table 4, bivalent analogues
Description: In order to assess the steric and hydropathic effects of the C-5 substituents of the pyridine on the binding affinity and subtype-selectivity at neuronal nicotinic acetylcholine receptors. […] The binding affinity ratios for a ligand, calculated from its affinities at an α subunit paired with either the β2 osubunit or the β4 subunit, represents a measure of the selectivity of that ligand with regard to the β subunits.
Formally, pKi is defined as -log10 of the concentration c, with c in mol/L.

Reference set (3 entries):
compound="Clc1ccc(C2CC3CCC2N3CCN2C3CCC2C(c2ccc(Cl)nc2)C3)cn1 (stereo not shown) [Ligand 59a]" assay_value=7.93
compound="Clc1ccc(C2CC3CCC2N3CCCCCCCCCCN2C3CCC2C(c2ccc(Cl)nc2)C3)cn1 (stereo not shown) [Ligand 59d]" assay_value=7.17
compound="Clc1ccc(C2CC3CCC2N3CCCCCCN2C3CCC2C(c2ccc(Cl)nc2)C3)cn1 (stereo not shown) [Ligand 59c]" assay_value=7.19

Query :: Supply measured pKi of Clc1ccc(C2CC3CCC2N3CCCN2C3CCC2C(c2ccc(Cl)nc2)C3)cn1 (stereo not shown) [Ligand 59b] in your reply.
Result :: 7.20

* * *

Quick reference for Ki among some compounds
Target Entity: α3β4 nAChR subtype (Rattus norvegicus, UniProt P04757+P12392)
Construct: expressed in transfected cells
Test Method Notes: biochemical
Type: binding
Study Conditions: Ki α3β4, Table 6; [3H]-EB 0.099 nM, 0.091 nM; ligand 0.00197-100 μM; n = 1
Respond with the bare value in nM.

compound="CN1CCC[C@H]1COc1cccnc1 [Ligand 8, reference compound]" target_entity="α3β4 nAChR subtype (Rattus norvegicus, UniProt P04757+P12392)" recorded_metric=Ki assay_value=835

Next, consider the following compound.
Query :: Supply measured Ki of c1cncc(OC[C@@H]2CCN2)c1 [Ligand A-85380, reference compound] in your reply.
Result :: 77.7

* * *

Target Entity: α3β2 nAChR subtype (Rattus norvegicus, UniProt P04757+P12390)
Construct: expressed in transfected cells
Sequence (P12390 25-500, one chain of several): as the sequence (P12390 25-500, one chain of several) above
Test Method Notes: biochemical
Format: binding
Study Conditions: Ki α3β2, Table 3; mean of 3 independent measurements
Recorded Metric: pKi
Formally, pKi is defined as -log10 of the concentration c, with c in mol/L.

Query :: Supply measured pKi of OCCCCC#Cc1ccc(C2CC3CCC2N3)cn1 (stereo not shown) [Ligand 34] in your reply.
Result :: 7.70

* * *

Quick reference for pKi among some molecules
Target Entity: α4β2 nAChR subtype (Rattus norvegicus, UniProt P09483+P12390)
Construct: expressed in transfected cells
Sequence (P12390 25-500): as the sequence (P12390 25-500, one chain of several) above
Sequence (P09483 31-630): as the sequence (P09483 31-630, one chain of several) above
Test Method Notes: biochemical
Type: binding
Study Conditions: read-out: Ki α4β2
Formally, pKi is defined as -log10 of the concentration c, with c in mol/L.

molecule="OC1CC2CC(c3ccc(Cl)nc3)C1N2 (racemic)" target_entity="α4β2 nAChR subtype (Rattus norvegicus, UniProt P09483+P12390)" recorded_metric=pKi assay_value=9.04
molecule="O=C1CC2CC(c3ccc(Cl)nc3)C1N2 (racemic)" target_entity="α4β2 nAChR subtype (Rattus norvegicus, UniProt P09483+P12390)" recorded_metric=pKi assay_value=5.69

Query :: Supply measured pKi of C#Cc1cncc([C@@H]2CCCN2C)c1 [SIB-1508Y, reference compound] in your reply.
Result :: 5.15

* * *

Target Entity: α2β4 nAChR subtype (Rattus norvegicus, UniProt P12389+P12392)
Construct: expressed in transfected cells
Test Method Notes: biochemical
Format: binding
Study Conditions: Ki α2β4, Table 4, bivalent analogues
Quick reference for pKi among some molecules
Formally, pKi is defined as -log10 of the concentration c, with c in mol/L.

molecule="Clc1ccc(C2CC3CCC2N3CCCCCCN2C3CCC2C(c2ccc(Cl)nc2)C3)cn1 (stereo not shown) [Ligand 59c]" target_entity="α2β4 nAChR subtype (Rattus norvegicus, UniProt P12389+P12392)" assay_value=7.43
molecule="Clc1ccc(C2CC3CCC2N3CCN2C3CCC2C(c2ccc(Cl)nc2)C3)cn1 (stereo not shown) [Ligand 59a]" target_entity="α2β4 nAChR subtype (Rattus norvegicus, UniProt P12389+P12392)" assay_value=8.54
molecule="Clc1ccc(C2CC3CCC2N3CCCN2C3CCC2C(c2ccc(Cl)nc2)C3)cn1 (stereo not shown) [Ligand 59b]" target_entity="α2β4 nAChR subtype (Rattus norvegicus, UniProt P12389+P12392)" assay_value=7.80

Next, consider the following molecule.
Query :: Supply measured pKi of Clc1ccc(C2CC3CCC2N3CCCCCCCCCCN2C3CCC2C(c2ccc(Cl)nc2)C3)cn1 (stereo not shown) [Ligand 59d] in your reply.
Result :: 7.62
